Reported koff is given for each of the following binders.
testTarget: T1, human PCSK9 (human, UniProt Q8NBP7 31-692)
T1 construct: also called hPCSK9; proprotein convertase subtilisin-kexin type 9
T1 sequence (Q8NBP7 31-692 limits assumed): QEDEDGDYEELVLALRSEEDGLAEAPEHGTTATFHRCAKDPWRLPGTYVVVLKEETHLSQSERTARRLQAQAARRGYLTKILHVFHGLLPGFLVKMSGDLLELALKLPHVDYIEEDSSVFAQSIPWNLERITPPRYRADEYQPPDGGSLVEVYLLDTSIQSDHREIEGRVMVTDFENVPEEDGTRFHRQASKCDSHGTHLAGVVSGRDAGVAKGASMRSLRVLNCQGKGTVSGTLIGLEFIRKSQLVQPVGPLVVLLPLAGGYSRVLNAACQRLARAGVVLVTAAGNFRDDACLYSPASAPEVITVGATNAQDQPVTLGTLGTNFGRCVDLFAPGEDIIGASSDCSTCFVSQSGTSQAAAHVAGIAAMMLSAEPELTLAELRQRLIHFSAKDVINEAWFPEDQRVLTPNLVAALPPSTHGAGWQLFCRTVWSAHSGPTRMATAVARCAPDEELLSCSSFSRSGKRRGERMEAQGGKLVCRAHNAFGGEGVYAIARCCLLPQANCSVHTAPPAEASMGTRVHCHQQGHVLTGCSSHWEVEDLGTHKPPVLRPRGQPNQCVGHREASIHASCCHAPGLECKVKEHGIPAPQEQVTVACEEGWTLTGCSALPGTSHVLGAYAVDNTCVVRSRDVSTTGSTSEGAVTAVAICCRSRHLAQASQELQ
measurementDescription: SPR (Biacore), Fab captured by anti-Fab IgG, 1:1 fit
Could you kindly put the unit after your number?

Answered cases to consult:
| binder | endpointLabel | measValue |
| --- | --- | --- |
| AX213 Fab (Fab, V domains shown) VH: QVQLLESGGGLVQPGGSLRLSCKASGYTFSRYGINWVRQAPGKGLEWIGRIDPGNGGTRYNEKFKGKATISRDNSKNTLYLQMNSLRAEDTAVYYCARANDGYSFDYWGQGTLVTVSS VL: EIVLTQSPATLSLSPGERATITCRASQYVGSYLNWYQQKPGQAPRLLIYDASNRATGIPARFSGSGSGTDFTLTISSLEPEDFAVYYCQVWDSSPPVVFGGGTKVEIKR | koff | 0.000329 s⁻¹ |
| AX137 Fab (Fab, V domains shown, Tested as purified Fab) VH: EVQLLESGGGLVQPGGSLRLSCKASGYTFSSYGMYWVRQAPGKGLEWIGWIDPGSGGTKYNEKFKGKATISRDNSKNTLYLQMNSLRAEDTAVYYCARERYGYYFDYWGQGTLVTVSS VL: EIVLTQSPATLSLSPGERATITCRASQYIGSYLNWYQQKPGQAPRLLIYDASNRATGIPARFSGSGSGTDFTLTISSLEPEDFAVYYCQAWDSSPPVVFGGGTKVEIK | koff | 0.00208 s⁻¹ |
| AX114 Fab (Fab, V domains shown, Tested as purified Fab from E. coli TG1) VH: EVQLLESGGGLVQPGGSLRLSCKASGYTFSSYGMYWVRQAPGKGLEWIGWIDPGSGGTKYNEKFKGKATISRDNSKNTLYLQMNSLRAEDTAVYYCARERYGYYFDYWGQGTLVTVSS VL: EIVLTQSPATLSLSPGERATITCRASQYVGTYLNWYQQKPGQAPRLLIYDASNRATGIPARFSGSGSGTDFTLTISSLEPEDFAVYYCQVWDSSPPVAFGGGTKVEIK | koff | 0.00348 s⁻¹ |
| AX212 Fab (Fab, V domains shown, Tested as purified Fab) VH: QVQLLESGGGLVQPGGSLRLSCKASGYTFSSYSFSWVRQAPGKGLEWIGYIDPGSGGTKYNQKFQGKATISRDNSKNTLYLQMNSLRAEDTAVYYCARQRVGYSLDYWGQGTLVTVSS VL: EIVLTQSPATLSLSPGERATITCRASQYVGSYLNWYQQKPGQAPRLLIYDASNRATGIPARFSGSGSGTDFTLTISSLEPEDFAVYYCQVWDSSPPVVFGGGTKVEIK | koff | 0.000233 s⁻¹ |
| AX210 Fab (Fab, V domains shown, Tested as purified Fab) VH: QVQLLESGGGLVQPGGSLRLSCKASGYTFSSYSIYWVRQAPGKGLEWIGWIDPGNGGTRYNQKFQSKATISRDNSKNTLYLQMNSLRAEDTAVYYCARARVGYSLDYWGQGTLVTVSS VL: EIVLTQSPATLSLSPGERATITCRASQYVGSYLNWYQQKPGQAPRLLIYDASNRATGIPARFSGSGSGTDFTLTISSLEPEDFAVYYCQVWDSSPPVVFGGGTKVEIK | koff | 0.000287 s⁻¹ |

Check the records and state koff for AX139 Fab (Fab, V domains shown, Tested as purified Fab) VH: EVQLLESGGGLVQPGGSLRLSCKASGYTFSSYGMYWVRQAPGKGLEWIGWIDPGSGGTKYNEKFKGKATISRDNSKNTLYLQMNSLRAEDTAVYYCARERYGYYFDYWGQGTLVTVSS VL: EIVLTQSPATLSLSPGERATITCRASQYVGSYLNWYQQKPGQAPRLLIYDAANRATGIPARFSGSGSGTDFTLTISSLEPEDFAVYYCQVWDSSPPVVFGGGTKVEIK
0.00118 s⁻¹

Tell me koff reported for AX211 Fab (Fab, V domains shown, Tested as purified Fab) VH: QVQLLESGGGLVQPGGSLRLSCKASGYTFSRQGFTWVRQAPGKGLEWIGWIDPGNGGTRYNEKFKGKATISRDNSKNTLYLQMNSLRAEDTAVYYCARYRVGYSLDYWGQGTLVTVSS VL: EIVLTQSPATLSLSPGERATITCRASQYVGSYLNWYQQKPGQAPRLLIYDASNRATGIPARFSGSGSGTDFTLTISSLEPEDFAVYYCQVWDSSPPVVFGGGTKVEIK
0.000329 s⁻¹
